- Test system: C. elegans strain PE254
- procedure.details: Follow-up 11-point re-test, C. elegans LSC viability
- Assay type: in vivo, Caenorhabditis elegans
- test.context: day 7; screening control in re-test; 4 replicate wells; read-out: EC50 using GFP area
measurement.label: pEC50
API: returns pEC50 as number; meaning -log10 of concentration in mol/L.

// field: pEC50; key: `c1ccc([C@H]2CN3CCSC3=N2)cc1` ; value = 5.65

----------
- Test system: C. elegans strain PE254
- procedure.details: C. elegans LSC qHTS viability assay, Anti-Infectives library primary screen (BG-fed, 384-well)
- Format: in vivo, Caenorhabditis elegans
- test.context: treatment day 5; internal control, 16-point titration, six replicate wells; read-out: Treatment day, EC50 (GFP area)
measurement.label: pEC50
API: returns pEC50 as number; meaning -log10 of concentration in mol/L.

// field: pEC50; key: c1ccc([C@H]2CN3CCSC3=N2)cc1 [Levamisole] ; value = 5.28

Data credit: paper PMC10067442
